- Test system: SNB-19 CNS
- measurementDescription: NCI tumour cell line growth inhibition, 48 h; in the data active = GI50 below about 0.43 µM; inactive = the rest
Respond using exactly one of the listed classes: active, inactive

Prompt: What classification did COc1ccc2nc(-c3ccc(Cl)cc3)cc(-c3nnc(SCC(=O)Nc4ccc(/C(C)=N\O)cc4)o3)c2c1 end up with in this test?
Completion: inactive

Prompt: Hi, sorry to bother you, what did the test record for COc1cc2c(cc1OCCCOc1cc3c(cc1OC)C(=O)N1CC(F)(F)C[C@H]1C=N3)N=C[C@@H]1CC(F)(F)CN1C2=O ?
Completion: inactive

Prompt: Tell me the recorded outcome of this test for COc1cc(-c2nn(-c3ccc(NC(=O)Nc4ccc(Cl)c(C(F)(F)F)c4)cc3)cc2-c2ccncc2)ccc1Cl .
Completion: inactive

Prompt: Entry COc1ccccc1CN=C1NC(=O)/C(=C/c2ccc3ncccc3c2)S1 : call = ?
Completion: inactive

Prompt: Tell me the assay call for C=CC1CC12C(=O)C1OC2(C)C2C(=O)c3c(O)cccc3C(=O)C12 (stereo not drawn) please.
Completion: inactive

Prompt: Per the records of this test, what outcome belongs to Cc1cc(N2CCCCC2)nc(NCc2cc(Nc3ccnc4cc(Cl)ccc34)ccc2F)n1 ?
Completion: inactive

Prompt: Test call for this compound, please: Cc1c(C)n(CC(O)CNC2CCCCC2C)c2ccccc12 (stereo not drawn)
Completion: inactive

Prompt: Can you look up the reported call for Nc1c(C(=O)c2cccc(C(O)(CO)CO)c2)cnn1-c1ccc(F)cc1 for me?
Completion: inactive

Prompt: GET /call?item= Cc1ccccc1NC(=O)N/C(N)=N/c1nc(C)c(C)s1 returns the recorded outcome of this test.
Completion: active

Prompt: Short answer needed: outcome of this test for O=C1c2cccc3c([N+](=O)[O-])ccc(c23)C(=O)N1CCCCl ?
Completion: inactive

Prompt: Dear all, I need the recorded test outcome for C[C@]12CC/C(=N\O)C[C@@H]1CC[C@@H]1[C@@H]2CC[C@]2(C)/C(=N/O)CC[C@@H]12 , thank you.
Completion: inactive

Prompt: What did the test return for Cc1ccc(C(=O)Nc2ccc(CN3CCN(C)CC3)c(C(F)(F)F)c2)cc1C#Cc1cnc(N)c2ccc(C#N)cc12 ?
Completion: inactive

Prompt: Returns: the outcome recorded for Cc1cc(NCCCNc2ccnc3cc(Cl)ccc23)nc(Nc2ccc(C(=O)N3CCCCC3)cc2)n1 in this assay.
Completion: inactive
